Values compiled from patent US12692310B2.

Would you mind telling me the reported Response of each entry?
- STUDY_SYSTEM: truncated hASIC1a (amino acids 13-464) (human) (UniProt P78348)
- PROCEDURE_DETAILS: Octet, scFv format at 500 nM, ΔhASIC1a nanodiscs
Give bare numbers.

Below, each entry is followed by its recorded Response result.
ASC05 (scFv, V domains shown, also called ASC05 scFv; ASC05 (scFv format)) VH: QVQLVESGAEVKKPGASVRVSCKASGYSFTNYYMHWVRQAPGQGLEWMGIISPSGRSTSFAQKFQGRVTMTRDTSTSTVYMHLSSLRSDDTAVYYCARGAWSTDAFDIWGQGTTVTVSS VL: QSALTQPASVSGSPGQSITISCTGTSSDVGSYNLVSWYQQHPGKAPKLMIYEGSKRPSGVSNRFSGSKSGNTASLTISGLQAEDEAEYHCSSFTGKGYVFGTGTKLTVLG	0.502
ASC01 (scFv, V domains shown, also called ASC01 scFv; ASC01 (scFv format)) VH: QVQLVETGPRLVKPSQTLSLTCTVSGGSINSGGYYWGWIRQHSGKGLEWIGYIYPRGSSYYNPSLRSRVTISADTSRNNFSLKLTSVTAADTAVYYCARVGYTGAFDIWGQGTLVTVSS VL: QAVLTQPSSVSAAPGQKVTISCSGGNSNIGNNYVSWYQQLPGTAPKLLIYDNNKRPSGIPDRFSGSKSGTAATLGITGLQTGDEADYYCGTWDSSLSAGVFGEGTQLTVLG	0.431

Reported Response for ASC03 (scFv, V domains shown, also called ASC03 scFv; ASC03 (scFv format)) VH: QVQLVESGAEVKKPGSSVKVSCKASGGNFRKYSISWVRQAPGQGLEWMGWISAYNGNTNYAQKLQGRVTMTTDTSTSTAYMELRSLRSDDTAVYYCARDFDPYYDAFDIWGQGTTVTVSS VL: QSALTQPASVSGSPGQSITISCTGTSSDVGAYNYVSWYQQHPGKAPKLMIYDVSNRLSGVSNRFSGSKSGNRASLTISGLQAEDEADYYCSSYRSGNSLAFGGGTKLTVLG : what is it?
0.269
